- tested target: GST-tagged SIK1 (Homo sapiens (Human), UniProt P57059)
- Sequence (P57059 whole entry): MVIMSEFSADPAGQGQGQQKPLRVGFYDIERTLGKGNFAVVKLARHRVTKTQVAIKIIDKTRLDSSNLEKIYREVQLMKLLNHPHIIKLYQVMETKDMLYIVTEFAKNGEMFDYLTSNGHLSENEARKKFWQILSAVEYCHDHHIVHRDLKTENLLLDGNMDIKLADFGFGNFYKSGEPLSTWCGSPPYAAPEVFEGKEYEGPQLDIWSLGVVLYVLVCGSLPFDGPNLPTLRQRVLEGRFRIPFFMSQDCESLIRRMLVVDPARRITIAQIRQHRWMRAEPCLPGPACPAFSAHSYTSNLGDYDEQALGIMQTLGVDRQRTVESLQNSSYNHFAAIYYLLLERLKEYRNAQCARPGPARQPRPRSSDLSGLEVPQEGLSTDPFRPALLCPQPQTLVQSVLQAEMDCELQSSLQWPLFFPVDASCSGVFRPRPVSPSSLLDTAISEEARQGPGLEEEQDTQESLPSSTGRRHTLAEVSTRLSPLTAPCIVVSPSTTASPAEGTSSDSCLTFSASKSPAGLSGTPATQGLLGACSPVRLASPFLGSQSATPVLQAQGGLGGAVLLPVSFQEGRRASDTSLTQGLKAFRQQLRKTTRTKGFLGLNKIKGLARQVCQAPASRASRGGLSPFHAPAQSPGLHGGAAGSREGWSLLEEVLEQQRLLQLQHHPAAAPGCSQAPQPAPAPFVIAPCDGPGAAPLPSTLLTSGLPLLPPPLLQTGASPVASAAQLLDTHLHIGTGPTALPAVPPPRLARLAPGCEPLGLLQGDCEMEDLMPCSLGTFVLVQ
pIC50: −log10 of the molar value.
measured endpoint: pIC50

Please review the following examples before continuing.
compound="COc1cc(-c2c3c(C#N)cc(-c4cc[nH]n4)cc3nn2C)cc(OC(F)F)c1C(=O)N[C@@H]1CC1(F)F [Example 149]" tested_target="GST-tagged SIK1 (Homo sapiens (Human), UniProt P57059)" measured_endpoint=pIC50 reported_result=7.98
compound="COc1cc(-c2c3c(C#N)cc(-c4cnn(C)c4)cc3nn2C)cc(OC(F)F)c1C(=O)NC[C@@H]1CC1(F)F (single isomer, unassigned) [Example 46]" tested_target="GST-tagged SIK1 (Homo sapiens (Human), UniProt P57059)" measured_endpoint=pIC50 reported_result=7.83
compound="COc1cc(-c2c3c(C#N)cc(-c4cnn(CC(F)(F)F)c4)cc3nn2C)cc2c1C(=O)NC[C@@H]2C (single isomer, unassigned) [Example 126]" tested_target="GST-tagged SIK1 (Homo sapiens (Human), UniProt P57059)" measured_endpoint=pIC50 reported_result=8.14
compound="COc1cc(-c2c3c(C(F)F)cc(-c4cnn(CC(=O)N(C)C)c4)cc3nn2C)cc(OC(F)F)c1C(=O)N1CC(O)(C(F)(F)F)C1 [Example 60]" tested_target="GST-tagged SIK1 (Homo sapiens (Human), UniProt P57059)" measured_endpoint=pIC50 reported_result=8.16
compound="Cn1cc(-c2cc(C#N)c3c(-c4cc(OC(F)F)c5c(c4)C(C)(C)CNC5=O)n(C)nc3c2)cn1 [Example 162]" tested_target="GST-tagged SIK1 (Homo sapiens (Human), UniProt P57059)" measured_endpoint=pIC50 reported_result=8.09

(I) COc1cc(-c2c3c(C#N)cc(-c4cnn(CC(F)F)c4)cc3nn2C)cc(OC(F)F)c1C(N)=O [Example 102]
(II) COc1cc(-c2c3c(C(F)F)cc(-c4cnn(CC[C@@H](C)O)c4)cc3nn2C)cc(OC(F)F)c1C(=O)N[C@@H]1CC1(F)F [Example 120]
Q: For this pair, I and II , which shows a numerically higher pIC50? State your choice using its label.
A: II
(II: 8.11, I: 7.72)

* * *

The following compounds have recorded IC50 on GST-tagged SIK3 (Homo sapiens (Human), UniProt Q9Y2K2).
Sequence (Q9Y2K2 whole entry): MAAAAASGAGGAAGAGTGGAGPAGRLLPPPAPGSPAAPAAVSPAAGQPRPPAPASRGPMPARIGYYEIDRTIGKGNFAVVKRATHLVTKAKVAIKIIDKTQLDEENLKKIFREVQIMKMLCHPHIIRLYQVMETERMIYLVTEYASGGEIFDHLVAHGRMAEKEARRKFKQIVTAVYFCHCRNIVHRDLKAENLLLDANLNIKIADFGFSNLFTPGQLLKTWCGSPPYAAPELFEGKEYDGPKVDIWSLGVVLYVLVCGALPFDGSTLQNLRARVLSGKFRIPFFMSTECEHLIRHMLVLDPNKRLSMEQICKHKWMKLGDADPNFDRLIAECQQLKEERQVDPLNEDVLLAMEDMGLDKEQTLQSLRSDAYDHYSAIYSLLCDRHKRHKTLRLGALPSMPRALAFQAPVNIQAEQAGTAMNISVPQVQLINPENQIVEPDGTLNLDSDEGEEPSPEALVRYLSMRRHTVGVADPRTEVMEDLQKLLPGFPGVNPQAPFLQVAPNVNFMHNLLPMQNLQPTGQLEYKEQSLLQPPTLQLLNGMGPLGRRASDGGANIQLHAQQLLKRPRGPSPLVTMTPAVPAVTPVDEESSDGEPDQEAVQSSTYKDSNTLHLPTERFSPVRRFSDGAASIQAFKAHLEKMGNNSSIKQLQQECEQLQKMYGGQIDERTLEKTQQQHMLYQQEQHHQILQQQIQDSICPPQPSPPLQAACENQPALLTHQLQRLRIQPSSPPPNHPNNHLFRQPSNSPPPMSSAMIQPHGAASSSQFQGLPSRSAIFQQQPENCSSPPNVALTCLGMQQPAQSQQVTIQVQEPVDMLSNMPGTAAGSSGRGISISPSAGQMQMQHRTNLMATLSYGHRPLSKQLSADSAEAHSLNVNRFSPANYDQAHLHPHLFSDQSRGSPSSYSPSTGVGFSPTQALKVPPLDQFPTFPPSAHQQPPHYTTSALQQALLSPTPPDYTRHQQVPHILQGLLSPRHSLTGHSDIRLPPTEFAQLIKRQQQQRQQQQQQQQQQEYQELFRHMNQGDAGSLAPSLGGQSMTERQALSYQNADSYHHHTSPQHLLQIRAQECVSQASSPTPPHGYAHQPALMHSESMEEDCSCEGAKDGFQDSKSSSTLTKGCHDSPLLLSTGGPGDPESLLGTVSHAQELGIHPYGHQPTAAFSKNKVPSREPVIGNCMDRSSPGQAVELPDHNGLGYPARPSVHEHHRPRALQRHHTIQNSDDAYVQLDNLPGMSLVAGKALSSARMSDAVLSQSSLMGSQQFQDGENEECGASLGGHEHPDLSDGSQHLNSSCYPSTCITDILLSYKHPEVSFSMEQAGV
measured endpoint: IC50 (nM)

Please review the following examples before continuing.
compound=COc1cc(-c2c3c(C#N)cc(-c4cnn(C)c4)cc3nn2C)cc2c1C(=O)NCC2(C)C display_unit=nM reported_result=6.6
compound=COc1cc(-c2c3c(C#N)cc(-c4cnn(CC(F)F)c4)cc3nn2C)cc(OC(F)F)c1C(=O)N[C@@H]1C[C@@H]1F display_unit=nM reported_result=7.8

(1) COc1cc(-c2c3c(C#N)cc(-c4cnn(C(C)C)c4)cc3nn2C)cc2c1C(=O)NC[C@@H]2C (single isomer, unassigned)
(2) COc1cc(-c2c3c(C(F)F)cc(-c4cnn(C)c4)cc3nn2C)cc(OC(F)F)c1C(=O)N[C@@H]1CC1(F)F
(3) COCCn1cc(-c2cc(OC)c3c(-c4cc(OC(F)F)c5c(c4)[C@@H](C)CNC5=O)n(C)nc3c2)cn1 (single isomer, unassigned) [Example 178]
Q: Descending sort on IC50 required. Returns: the labels listed in the requested order.
A: 3, 1, 2
(3: 15.6 nM, 1: 4.1 nM, 2: 2.4 nM)

(1) COc1cc(-c2c3c(OCc4cncc(C#N)c4)cc(-c4cnn(C)c4)cc3nn2C)cc(OC(F)F)c1C(=O)N1CC(O)(C(F)(F)F)C1
(2) COc1cc(-c2c3c(C(F)F)cc(-c4cn[nH]c4)cc3nn2C)cc(OC(F)F)c1C(=O)N1CC(O)(C(F)F)C1
(3) COc1cc(-c2c3c(C#N)cc(-c4cnn(C5CCOC5)c4)cc3nn2C)cc(OC(F)F)c1C(=O)N[C@@H]1C[C@@H]1F (stereo partly shown)
Q: Ascending by IC50, please. Returns: the labels listed in the requested order.
A: 2, 1, 3
(2: 2 nM, 1: 4.8 nM, 3: 7.7 nM)

(P) COc1cc(-c2c3c(C#N)cc(-c4cnn(C)c4)cc3nn2C)cc(OC(F)F)c1C(=O)N[C@@H]1CC1(F)F
(Q) COCCn1cc(-c2cc(C#N)c3c(-c4cc(OC(F)F)c5c(c4)[C@@H](C)CNC5=O)n(C)nc3c2)cn1 (single isomer, unassigned)
Q: For this pair, P and Q , which shows a numerically higher IC50? State your choice using its label.
A: P
(P: 5 nM, Q: 3.5 nM)
